target: TDP-43 (Homo sapiens, UniProt Q13148 1-414); assay: RNA Bind-n-Seq with designed 260-mer pool; 25 mM Tris-HCl, 150 mM KCl, 3 mM MgCl2, BSA (printed 500 mg/mL), 20 units/mL SUPERase IN; pH not stated; 500 nM RNA pool, 1 h, 4 C; TDP-43 5, 50, 500 nM; high values mean tight binding; details: protein: recombinant; tags: SBP (GST cleaved off with PreScission; pGEX-GST-SBP)
Sequence (Q13148 whole entry): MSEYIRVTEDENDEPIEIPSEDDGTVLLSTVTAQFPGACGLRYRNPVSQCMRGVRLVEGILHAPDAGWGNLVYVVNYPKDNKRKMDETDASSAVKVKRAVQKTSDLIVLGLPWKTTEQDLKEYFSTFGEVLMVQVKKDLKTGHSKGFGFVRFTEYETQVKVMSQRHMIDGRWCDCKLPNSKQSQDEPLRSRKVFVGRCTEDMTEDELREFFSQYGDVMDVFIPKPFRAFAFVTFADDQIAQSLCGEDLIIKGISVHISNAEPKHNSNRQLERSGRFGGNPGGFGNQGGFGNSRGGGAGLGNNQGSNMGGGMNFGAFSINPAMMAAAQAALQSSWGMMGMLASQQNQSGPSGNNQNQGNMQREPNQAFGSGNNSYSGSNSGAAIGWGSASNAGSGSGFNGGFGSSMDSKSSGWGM
Over roughly 9,900 sequences, “r (bound/input frequency ratio)” has its median near 0.7; the highest 2% begin near 6.5. The sample holds the highest values, similar sequences and a random draw of the others, so the mix is not that of the screen.
Some binders, each annotated with its measured binding signal.

Illustrative cases are given below, each with its answer.
{"binder": "ENSMUSG00000061578.1462|Ksr2 (ssRNA) RNA: GGGAGUUCUACAGUCCGACGAUCGCUUCGAUAUCCGCAUGCUAGAUGGGUAGGUGGGUAGAUAGGUAUAUGAAUGAAUGGAUGAAUGGAUGGGUGAAUGGAUGGAUAGGUAUGUGAAUAAAUGGAUGGAUGGAUGGAUUGAUUUGUGAAUGAAUGGAUGAAUGGAUGGGUAGGUGGGUGGAUGCAUAGGCAAGUAGAUGAAUGAAUAUGUGGGUAGAAGGGUGAGUGGGUGGAUGAAUGGAUGGAUAGGUUGGUAGGUUAAUGUAUUCGUGGAUGGGUGAAUGGAUGGAUGGAUAGAUAGAUGCUCUUGCGGUCGCACUAGUGUGGAAUUCUCGGGUGUCAAGG", "experimental.readout": "binding signal", "result": "5.83 R (bound/input frequency ratio)"}
{"binder": "ENSMUSG00000043670.241|Diras1|81:85;191:203;214:220;245:253 (ssRNA) RNA: GGGAGUUCUACAGUCCGACGAUCGCUUCGAUAUCCGCAUGCUAGAUGAGCACCAGGUCUGUUCCAGGCUGUGGCAAGCUGGCUCCUGGCUCAGAAGUGACAAAGCUGCAGUACAGAGGCCUCACACACAGGUCAUCACCUCACAGUGGCUACAGACCAGGCUGUGGCCUGAGUGAGCUGGAACCUCUGGGGUGGGGACGAGAAAGAGAGAGGGAGAGAGAGGGGGGAGAGUGACACACACACACACAAGGGGGAGACACACACGGGGAAGAGUGAGAGAGAUAGAGUCAUACACACAGAGGGACUCUUGCGGUCGCACUAGUGUGGAAUUCUCGGGUGUCAAGG", "experimental.readout": "binding signal", "result": "4.89 R (bound/input frequency ratio)"}
{"binder": "ENSMUSG00000061578.1472|Ksr2 (ssRNA) RNA: GGGAGUUCUACAGUCCGACGAUCGCUUCGAUAUCCGCAUGCUAGAUAGGUAUGUGAAUAAAUGGAUGGAUGGAUGGAUUGAUUUGUGAAUGAAUGGAUGAAUGGAUGGGUAGGUGGGUGGAUGCAUAGGCAAGUAGAUGAAUGAAUAUGUGGGUAGAAGGGUGAGUGGGUGGAUGAAUGGAUGGAUAGGUUGGUAGGUUAAUGUAUUCGUGGAUGGGUGAAUGGAUGGAUGGAUAGAUAGAUGGGAAGGUGGAUGGACAGAUGGAUGGAUGGAUAGAUAGAUGGACAGGUGGUUGGUGGAUAACUCUUGCGGUCGCACUAGUGUGGAAUUCUCGGGUGUCAAGG", "experimental.readout": "binding signal", "result": "5.09 R (bound/input frequency ratio)"}

Shifting focus to the binder that follows.
Identify measured binding signal corresponding to ENSMUSG00000061578.1470|Ksr2 (ssRNA) RNA: GGGAGUUCUACAGUCCGACGAUCGCUUCGAUAUCCGCAUGCUAGGUGAAUGGAUGGAUAGGUAUGUGAAUAAAUGGAUGGAUGGAUGGAUUGAUUUGUGAAUGAAUGGAUGAAUGGAUGGGUAGGUGGGUGGAUGCAUAGGCAAGUAGAUGAAUGAAUAUGUGGGUAGAAGGGUGAGUGGGUGGAUGAAUGGAUGGAUAGGUUGGUAGGUUAAUGUAUUCGUGGAUGGGUGAAUGGAUGGAUGGAUAGAUAGAUGGGAAGGUGGAUGGACAGAUGGAUGGAUGGAUAGAUAGAUGGACAGGUGCUCUUGCGGUCGCACUAGUGUGGAAUUCUCGGGUGUCAAGG
5.59 R (bound/input frequency ratio)
